The values you see were collected from a melting point compilation (Tetko et al.; mined from patent text by program, amines drawn as free bases though some values may be those of a salt).

Collected melting point values appear next to each entry.
measured-endpoint: melting point

In [3]: df
Out[3]:
                                    molecule  value_measured
 0         Nc1ccc(OCc2ccccc2)cc1[N+](=O)[O-]   139 to 141 °C
 1  COc1ccc(C=CC(=O)c2c(OC)cc(OC)cc2OC(=O)OCc2ccccc2)cc1          127 °C
 2        CCOC(=O)C(Cl)=Cc1cc(NC(N)=O)ccc1Cl   209 to 210 °C
 3                      CN(C)CCNc1ccc(Cl)nn1     86 to 92 °C
 4              Brc1ccc(OCc2ccc3ccccc3c2)nc1     83 to 85 °C
 5                 NS(=O)(=O)c1ccccc1SCC(F)F   111 to 112 °C
 6  CC(=O)N(CCCc1ccccc1)[C@H]1CC[C@H](c2ccc(OCc3ccccc3)cc2)CC1   80 to 81.5 °C
 7  O=C(O)Cc1c(C(=O)O)c2cc(Oc3ccc(Cl)cc3)ccc2n1-c1ccc(OC(F)(F)F)cc1   198 to 202 °C
 8  CC(C)n1nc(-c2c(NCc3cccnc3)nc(N)nc2-c2ccccc2)ccc1=O   215 to 216 °C
 9  CSc1cc2n(c(=O)n1)C(c1ccccc1)N=C2 (configuration not stated)   198 to 199 °C
10  Cc1cc(CCCOc2c(C)cc(-c3noc(=N)[nH]3)cc2C)on1   175 to 183 °C
11            COc1ccc(-c2cc(=O)[nH]cn2)cc1OC   248 to 249 °C
12  CN1CCN(C(=O)OC2c3ccccc3C(=O)N2c2ccc3ccc(C#N)nc3n2)CC1 (configuration not stated)   266 to 268 °C
13  COC(=O)C1CCN2C(=O)C(=O)c3cc(Cl)cc1c32 (configuration not stated)   132 to 133 °C
14  O=C(N[C@H]1CC[C@H](CCN2CCN(c3nccc4c3CCO4)CC2)CC1)C1(O)CCC1          178 °C
15  Nc1cccc(-c2ccc(CCN3CC4C(N)C4C3)cc2)n1 (configuration not stated)   187 to 190 °C
16  C=C(C(=O)OC)N(Cc1cc(C)ccc1NC(=O)c1ccccc1)S(=O)(=O)c1ccc(OC)cc1     58 to 62 °C
17  N#Cc1c(N2CCc3ccccc3CC2)[nH]c(=O)[nH]c1=O   183 to 186 °C
18   CCN(CC)C(=O)CCc1ccc(N)c([N+](=O)[O-])c1     98 to 99 °C
19  Nc1ncc(-c2nc(N3CCOCC3)c3sc(NS(=O)(=O)c4cccc(C=CC(=O)NO)c4)cc3n2)cn1        > 300 °C
20  CCC1(C)OC(c2ccc(S(N)(=O)=O)cc2)=C(c2ccccc2)C1=O (configuration not stated)   153 to 154 °C
21                 CCCCC#CCCOc1cc(C=O)ccc1OC     42 to 43 °C
22  CCOCc1nc2c(N)nc3cc(OCCCCCCNC(=O)CCS)ccc3c2n1CC(C)(C)NS(C)(=O)=O   152 to 157 °C
23       O=Cc1ccc2cccc3c4cccc5cccc(c1c23)c54   232 to 234 °C
24             CCc1cc(O)c2c(ccc3nc[nH]c32)n1   309 to 317 °C
25            CC(C)(C)OC(=O)COc1coc(CO)cc1=O     90 to 92 °C
26  CCc1c(CCNC(=O)CCC(C)CC(=O)NCCc2ccc(OC)c(OC)c2CC)ccc(OC)c1OC (configuration not stated)   152 to 153 °C
27  CC(=O)c1ccc(NS(C)(=O)=O)c(C(=O)c2ccc(F)cc2F)c1   114 to 117 °C
28  Nc1nc2ccccc2c2c1ncn2CCCCCS(=O)(=O)c1ccccc1   171 to 172 °C
29  CCOC(=O)C(=C1SC(=O)N(CC(=O)O)C1=O)c1csc(NC(C)=O)n1   288 to 290 °C
30  CC(=O)NCCNC(=O)Nc1ccc(-c2c[nH]c(=O)cn2)cc1   238 to 244 °C
31         CN(C)c1cnc(-c2cccc(Cl)c2Cl)c(N)n1   147 to 148 °C
32  C=CCN(CCC)C1COc2cccc(O)c2C1 (configuration not stated)     78 to 80 °C
33  COc1cc2nc(N3CCc4c(cccc4-c4cnccc4N)C3)[nH]c(=O)c2cc1OC        > 300 °C
34          COc1cccc(CN[C@@H](C)C2CCCCC2)c1O     65 to 66 °C
35          COc1ccc(CNC(=O)c2cc(C)sc2N)cc1OC          175 °C
36  C1=C(/C=C/c2ccccc2)CCN(Cc2n[nH]c3c2CCc2ccccc2-3)C1   205 to 210 °C
37                    Clc1cc(Br)c2ccccc2c1Cl     84 to 86 °C
38                CCS(=O)(=O)N1CCSc2ccccc2C1     78 to 80 °C
39  CCC(OC1OC(COC(C)=O)C(OC(C)=O)C(OC(C)=O)C1OC(C)=O)C(=O)O (configuration not stated)    98 to 100 °C
40   OCCCCc1ccc(OCc2coc(/C=C/c3ccccc3)n2)cc1     90 to 91 °C
41   Brc1cc2c(c(C34CC5CC(CC(C5)C3)C4)c1)OCO2          136 °C
